Taken from patent US20220348558A1.

- Test system: VEEV TC83
- ASSAY NAME: microbe, parasite or virus in culture
- Type: cell-based
- CONDITION PARAMETERS: Venezuelan equine encephalitis virus, Vero 76, 48 h, read-out: VEEV TC83 EC50 nM
// values below are reported EC50

                                   molecule  readout_kind    meas_value
0  COc1ccc(-n2c([C@H]3CC(F)(F)CN3)nc3c(-c4ccc(C)nc4)cc(C#N)cc3c2=O)cc1F          EC50  51 to 150 nM
1  COc1c(F)cc(-n2c(C3CCCN3)nc3c(-c4ccc(CO)nc4)cc(C#N)cc3c2=O)cc1F (stereo not shown)          EC50    1 to 50 nM

Query string: Specify the recorded EC50 for COc1ccc(-n2c([C@H](C)N(C)C)nc3ccc([N+](=O)[O-])cc3c2=O)cc1 , system: VEEV TC83.
Result string: 51 to 150 nM

Query string: Please respond with reported EC50 (system VEEV TC83) for COc1c(F)cc(-n2c(C3CCCN3)nc3c(-c4ccc(C#CCO)cc4)cc(C#N)cc3c2=O)cc1F (stereo not shown) .
Result string: 51 to 150 nM

====

- Test system: VEEV TC83
- ASSAY NAME: microbe, parasite or virus in culture
- Type: cell-based
- CONDITION PARAMETERS: Venezuelan equine encephalitis virus, Vero 76, 48 h, read-out: VEEV TC83 EC50 nM
// EC50 lookup, one value per entry

In [3]: df
Out[3]:
                                   compound  system_tested     meas_value
0  COc1ccc(-n2c([C@@H]3CCCN3)nc3c(C(F)(F)F)cc(C#N)cc3c2=O)cc1      VEEV TC83   51 to 150 nM
1  CN1CCC(N2CCC[C@@H]2c2nc3ccc([N+](=O)[O-])cc3c(=O)n2-c2ccccc2)CC1      VEEV TC83  151 to 500 nM
2  O=c1c2cc([N+](=O)[O-])ccc2nc([C@H]2CCCN2)n1-c1cccc(OC(F)(F)F)c1      VEEV TC83      > 1000 nM
3  COc1ccc(-n2c([C@H]3CCCN3)nc3ccc([N+](=O)[O-])cc3c2=O)c(F)c1      VEEV TC83   51 to 150 nM
4  COc1cccc(-n2c(C3CCCN3)nc3ccc([N+](=O)[O-])cc3c2=O)c1 (stereo not shown)      VEEV TC83      > 1000 nM
5  COc1ccc(-n2c(C34CC(CN3)C4)nc3c(-c4ccc(C)nc4)cc(C#N)cc3c2=O)cc1F      VEEV TC83     1 to 50 nM

Could you now consider this next compound?
Query string: For the compound COc1ccc(-n2c([C@H]3CCCN3)nc3c(-c4cncnc4)cc([N+](=O)[O-])cc3c2=O)cc1 , report EC50.
Result string: 1 to 50 nM

====

- Test system: WEEV California
- ASSAY NAME: microbe, parasite or virus in culture
- Format: cell-based
- CONDITION PARAMETERS: Western equine encephalitis virus, Vero 76, 48 h, read-out: WEEV California EC50 nM
READOUT KIND: EC50

Consider the worked cases shown below.
>>> print(df.to_string())
                                   compound  readout_kind     meas_value
0  COc1ccc(-n2c(C3CCCN3)nc3c(-c4ccc(NS(C)(=O)=O)cc4)cc(C#N)cc3c2=O)cc1F (stereo not shown)          EC50   51 to 150 nM
1  Cc1ccc(-c2cc(C#N)cc3c(=O)n(-c4ccc(O)c(F)c4)c([C@H]4CCCN4)nc23)cn1          EC50  151 to 500 nM
2  COc1ccc(-n2c(C3CCCN3)nc3c(-c4ccc(N5CCOCC5)nc4)cc(C#N)cc3c2=O)cc1F (stereo not shown)          EC50     1 to 50 nM

Query string: # return recorded EC50 for entry COc1ccc(-n2c([C@H]3C[C@H](F)CN3)nc3c(C)cc(C#N)cc3c2=O)cc1
Result string: 151 to 500 nM

Query string: Identify measured EC50 corresponding to COc1ccc(-n2c([C@@H]3C[C@@H]4CCCC[C@@H]4N3)nc3c(-c4ccc(C)nc4)cc(C#N)cc3c2=O)cc1F
Result string: 51 to 150 nM

Query string: Supply EC50 value. Item: COc1ccc(-n2c([C@@H]3CCCN3C)nc3c(C)cc([N+](=O)[O-])cc3c2=O)cc1F
Result string: 1 to 50 nM

Query string: Answer with the recorded EC50 for the compound listed here: COc1ccc(-n2c([C@H]3CCCN3)nc3ccc([N+](=O)[O-])cc3c2=O)cc1F
Result string: 1 to 50 nM
